Origin of values: patent US20230408517A1

Consider the following binders and their measured percent blocking readings.
# System: recombinant SARS-CoV-2 spike S1 RBD (R319-F541), C-terminal 6-His (SARS-CoV-2, UniProt P0DTC2 319-541)
# Experimental details: flow cytometry, blocking of binding to hACE-2 cells
Observation type: percent blocking (%)

Binder	Unit abbreviation	Value
1035423 (antibody, V domains shown) VH: EVKLEESGGGLVQPGGSMKLSCTASGFTFSDAWMDWVRQSPEKGLEWVAEIRNKANNHATYYAESVKGRFTISRDDSKSSVYLQMNSLRAEDTGIYYCILFITYAMDYWGQGTSVTVSS VL: DIVLTQSQKFMSTSVGDRVSITCKASQNVRTAVAWYQQKPGQSPKALIYLASNRHTGVPDRFTGSGSGTDFTLTISNVQSEDLADYFCLQHWNYPLTFGSGTKLELK	%	94.1
1035762 (antibody, V domains shown) VH: EVQLQQSGPELVKPGASVKISCKTSGYTFTEYTMHWVKQSHGKSLEWIGGINPNNGDTGYNQKFKGKATLTVDKSSSTAYMELRSLTFEDSAVYYCARDGYPLYYAMDYWGQGTSVTVSS VL: DIQMTQSPSSLSASLGERVSLTCRASQEISGYLCWLQQKPDGTIKRLIYAASTLDSAVPKRFSGSRSGSDYSLTISSLESEDFADFYCLQYASYPWTFGGGTKLEIK	%	94.1
1035716 (antibody, V domains shown) VH: EVLLQQSGPELVKPGASVKIPCKASGYTFTDYNMDWVKQSHGKSLEWIGDINPNNGGTIYNQKFKGKATLTVDKSSSTAYMELRSLTSEDTAVYYCAREGYGNYFDYWGQGTTLTVSS VL: DILLTQSPAILSVSPGERVSFSCRASQSIGTSIHWYQQRTNGSPRLLIKYASESISGIPSRFSGSGSGTDYTLSINSVESEDIADYYCQQSYSWPTTFGAGTKLELK	%	94.6
